# System: MYB mRNA
# assayInfo: Gene panel canonical junction qPCR assay, decrease in CJ mRNA, Table 3
# Assay type: cell-based
# conditionDescription: decrease in canonical junction (CJ) mRNA, gene panel qPCR, Table 3
# Description: Compounds described herein were used to modulate RNA transcript abundance in cells. The expression of a target mRNA was measured by detecting the formation of an exon-exon junction in the canonical transcript (CJ). A compound mediated exon-inclusion event was detected by observing an increase in formation of a new junction with an alternative exon (AJ). Real-time qPCR assays were used to detect these splicing switches and interrogate the potency of various compounds towards different target genes. […]
Structures can show the parent of a compound that is named as a salt.
parameterMeasured: IC50

Sample records with IC50:
compound	assaySystem	resultValue
COc1cc2nn(C)cc2cc1NC(=O)c1ccc(N2CCC(NC3CC3)CC2)c2cn(C)nc12 [Compound 444]	MYB mRNA	100 to 1000 nM
CCNC1CCN(c2cc(F)c(C(=O)Nc3cn4cc(CC5CC5)nc4c(F)c3OC)c3nn(C)cc23)CC1 [Compound 336]	MYB mRNA	> 10000 nM
Cc1cn2cc(NC(=O)c3c(F)cc(N4CCC(NC5CC5)CC4)c4cn(C)nc34)cc(Oc3cccnn3)c2n1 [Compound 409]	MYB mRNA	100 to 1000 nM
Cc1cn2cc(NC(=O)c3c(F)cc(N4CCC(NC5CCC5)CC4)c4cn(C)nc34)nc2c(C)n1 [Compound 349]	MYB mRNA	< 100 nM
CCNC1CCN(c2ccc(C(=O)Nc3cn4cc(C)nc4cc3OC)c3nn(C)cc23)CC1 [Compound 323, trifluoroacetate]	MYB mRNA	100 to 1000 nM

Give me IC50 for each of these compounds, listed below.
1. CCNC1CCN(c2ccc(C(=O)Nc3cc(CC(=O)O)c4nc(C)cn4c3)c3nn(C)cc23)CC1 [Compound 339]
2. Cc1cn2cc(NC(=O)c3ccc(N4CCC(NC5CC5)CC4)n4cc(C)nc34)cc(F)c2n1 [Compound 210]
3. COc1c(NC(=O)c2c(F)cc(N3CCC(NC4CC4)CC3)c3cn(C)nc23)cc2cn(C)nc2c1Cl [Compound 433]
4. Cc1cn2cc(NC(=O)c3ccc(N4CCC5(CCN5)CC4)c4cn(C)nc34)nc2c(C)n1 [Compound 563]
5. Cc1cn2cc(NC(=O)c3ccc(N4CCC(NC5CC5)CC4)c4cn(C)nc34)nc2c(C)n1 [Compound 297]
6. Cc1cn2cc(NC(=O)c3ccc(N4C[C@@H](C)N[C@@H](C)C4)c4nn(C)nc34)cc(F)c2n1 [Compound 252, trifluoroacetate]
7. Cc1cn2cc(NC(=O)c3ccc(N4CC(CNC5CC5)C4)c4cn(C)nc34)cc(F)c2n1 [Compound 298]

Outgoing:
100 to 1000 nM
< 100 nM
< 100 nM
100 to 1000 nM
100 to 1000 nM
100 to 1000 nM
100 to 1000 nM

Quick request: IC50 for each listed item, please.
1. Cc1cc2cc(NC(=O)c3c(F)cc(N4CCC(NC5CC5)CC4)c4cn(C)nc34)oc2c(C)n1 [Compound 456]
2. Cc1cn2cc(NC(=O)c3c(F)cc(N4CCC(N)CC4)c4cn(C)nc34)nc2c(C)n1 [Compound 347, 2,2,2-trifluoroacetate]
3. COCCNc1cc(N2CCC(NC3CC3)CC2)c2cn(C)nc2c1C(=O)Nc1cc2cn(C)nc2cc1OC [Compound 442]

Outgoing:
1: 100 to 1000 nM; 2: < 100 nM; 3: > 10000 nM

Give one value of IC50 per listed compound.
1. CNC1CCN(c2ccc(NC(=O)c3cc4cc(C)nn4cc3OC)c3nn(C)cc23)CC1 [Compound 520]
2. Cc1cn2cc(NC(=O)c3ccc(N4C[C@@H](C)N[C@@H](C)C4)c4[nH]c(C)nc34)cc(F)c2n1 [Compound 225]
3. CO[C@H]1C[C@H](N[C@H]2CCN(c3ccc(C(=O)Nc4cc(F)c5nc(C)cn5c4)c4nn(C)cc34)C2)C1 [Compound 275]
4. CCNC1CCN(c2cc(F)c(C(=O)Nc3cc4cn(C)nc4cc3OC)c3nn(C)cc23)CC1 [Compound 387]

Outgoing:
> 10000 nM
1000 to 10000 nM
100 to 1000 nM
< 100 nM
